assay: 225Ac-labeling of ligands in serial dilution, radiochemical yield and 7-day stability by TLC; assay type: physicochemical; details: ligand 10^−7 M, 100 kBq actinium-225, 0.2 M ammonium acetate buffer pH 6, after seven days; normal phase TLC, silica, 50 mM EDTA pH 7

compound	display-unit	RCY NP (7 d)
C#CCOc1cc(CN2CCOCCOCCN(Cc3cc(OCC#C)cc(C(=O)[O-])n3)CCOCCOCC2)nc(C(=O)[O-])c1.[225Ac+3] [[^225Ac]Ac-mcp-D-click]	%	50
O=C(O)CCCCn1cc(COc2cc(CN3CCOCCOCCN(Cc4cccc(C(=O)[O-])n4)CCOCCOCC3)nc(C(=O)[O-])c2)nn1.[225Ac+3] [[^225Ac]Ac-mcp-M-COOH]	%	99
O=C([O-])c1cccc(CN2CCOCCOCCN(Cc3cccc(C(=O)[O-])n3)CCOCCOCC2)n1.[225Ac+3] [[^225Ac]Ac-macropa, reference compound]	%	99
O=C(O)CC[C@H](NC(=O)N[C@@H](CCCCNC(=O)[C@H](Cc1ccc2ccccc2c1)NC(=O)[C@H]1CC[C@H](CNC(=O)CCCCn2cc(COc3cc(CN4CCOCCOCCN(Cc5cc(OCc6cn(CCCCC(=O)NC[C@H]7CC[C@H](C(=O)N[C@@H](Cc8ccc9ccccc9c8)C(=O)NCCCC[C@H](NC(=O)N[C@@H](CCC(=O)O)C(=O)O)C(=O)O)CC7)nn6)cc(C(=O)O)n5)CCOCCOCC4)nc(C(=O)O)c3)nn2)CC1)C(=O)O)C(=O)O [[^225Ac]Ac-mcp-D-PSMA, metal not drawn]	%	95
O=C(O)CC[C@H](NC(=O)N[C@@H](CCCCNC(=O)[C@H](Cc1ccc2ccccc2c1)NC(=O)[C@H]1CC[C@H](CNC(=O)CCCCn2cc(COc3cc(CN4CCOCCOCCN(Cc5cccc(C(=O)O)n5)CCOCCOCC4)nc(C(=O)O)c3)nn2)CC1)C(=O)O)C(=O)O [[^225Ac]Ac-mcp-M-PSMA, metal not drawn]	%	99
C#CCOc1cc(CN2CCOCCOCCN(Cc3cccc(C(=O)[O-])n3)CCOCCOCC2)nc(C(=O)[O-])c1.[225Ac+3] [[^225Ac]Ac-mcp-M-click]	%	58

----------
Catalogue of compounds with associated RCY RP (7 d)
assay: 225Ac-labeling of ligands in serial dilution, radiochemical yield and 7-day stability by TLC; format: physicochemical; settings: ligand 10^−6 M, 100 kBq actinium-225, 0.2 M ammonium acetate buffer pH 6, after seven days; reversed-phase TLC, Alugram RP-CN, acetonitrile/water 7/3

compound	display-unit	RCY RP (7 d)
O=C(O)CCCCn1cc(COc2cc(CN3CCOCCOCCN(Cc4cccc(C(=O)[O-])n4)CCOCCOCC3)nc(C(=O)[O-])c2)nn1.[225Ac+3] [[^225Ac]Ac-mcp-M-COOH]	%	99
O=C([O-])c1cccc(CN2CCOCCOCCN(Cc3cccc(C(=O)[O-])n3)CCOCCOCC2)n1.[225Ac+3] [[^225Ac]Ac-macropa, reference compound]	%	99
C#CCOc1cc(CN2CCOCCOCCN(Cc3cccc(C(=O)[O-])n3)CCOCCOCC2)nc(C(=O)[O-])c1.[225Ac+3] [[^225Ac]Ac-mcp-M-click]	%	99
C#CCOc1cc(CN2CCOCCOCCN(Cc3cc(OCC#C)cc(C(=O)[O-])n3)CCOCCOCC2)nc(C(=O)[O-])c1.[225Ac+3] [[^225Ac]Ac-mcp-D-click]	%	94
